- TARGET: UniProt O96013
- Sequence (O96013 whole entry): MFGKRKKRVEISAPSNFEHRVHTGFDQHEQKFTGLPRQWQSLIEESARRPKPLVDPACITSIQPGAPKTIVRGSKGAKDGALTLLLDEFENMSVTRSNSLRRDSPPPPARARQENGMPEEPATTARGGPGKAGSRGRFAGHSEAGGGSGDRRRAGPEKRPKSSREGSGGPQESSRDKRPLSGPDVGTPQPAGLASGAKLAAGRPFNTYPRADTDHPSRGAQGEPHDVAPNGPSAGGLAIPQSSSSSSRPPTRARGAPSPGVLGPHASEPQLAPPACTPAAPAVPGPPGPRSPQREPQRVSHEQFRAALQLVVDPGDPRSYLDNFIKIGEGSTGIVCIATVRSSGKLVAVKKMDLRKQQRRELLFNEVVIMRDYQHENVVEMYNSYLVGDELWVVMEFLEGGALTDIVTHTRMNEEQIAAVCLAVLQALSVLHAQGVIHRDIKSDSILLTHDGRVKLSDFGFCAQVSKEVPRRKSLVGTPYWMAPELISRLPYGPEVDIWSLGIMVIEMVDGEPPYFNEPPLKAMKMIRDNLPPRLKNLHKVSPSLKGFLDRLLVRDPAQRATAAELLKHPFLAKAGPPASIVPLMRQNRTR
MEASURED ATTRIBUTE: IC50

In: Requested field: IC50. Item: CNc1ncc(-c2ccc(Cc3c(Cl)cc(OC)cc3Cl)o2)cn1
Out: 200 to 500 nM

###

- Test system: TB33117 (pancreatic cancer)
- EXPERIMENTAL PROTOCOL: Cell proliferation, TB33117
- Assay type: cell-based, mouse
pIC50: −log10 of the molar value.
MEASURED ATTRIBUTE: pIC50

In: Name the recorded pIC50 for CNc1ncc(-c2ccc(Cc3c(Cl)cc(OC)cc3Cl)o2)cn1 .
Out: 5.70 to 6.00
